Test system: B16 melanoma
assayProtocol: Eumelanin production suppression test
Type: cell-based
conditionDescription: Mus musculus, 72 h, 3 days culture, absorbance of medium at 450 nm, control = 100%, read-out: 50% melanin production suppressing concentration
readoutKind: IC50 (mM)
The figure you give is taken to be in mM; do not add the unit.

CC(=O)N1C(C(=O)O)CSC1(C)C(=O)O (stereo not shown) [Synthetic Example 13] ... 5.47

What value of IC50 has been recorded for this entry: CCOC(=O)C1(C)SCC(C(=O)O)N1C(C)=O (stereo not shown) [Synthetic Example 1]
4.54

// IC50 lookup, key: CCOC(=O)C1CSC(C)(C(=O)OCC)N1C(C)=O (stereo not shown) [Synthetic Example 19]
2.61

So what does the record say about IC50 for CCOC(=O)C1(C)SCC(C(=O)OC(C)C)N1C(C)=O (stereo not shown) [Synthetic Example 20] ?
1.42
